Assay: in vivo resorption examination in mice: serum concentration determined microbiologically from inhibition zones
Design: species or system Male CFLP mice
Conditions: mouse, serum; 1 hour after treatment; 50 mg/kg oxolinic acid or 70 mg/kg choline oxolinate; read-out: Plasma concentrations from the calibration curve
Procedure: Male CFLP mice with 25 g of an average body weight were used for these experiments. […] The doses administered were 50 mg/kg of body weight of oxolinic acid or 70 mg/kg of body weight of choline oxolinate, respectively. )These doses are equimolar as calculated for oxolinic acid.) At 0.5, 1, 2, 3 or 4 hours, respectively after treatment the animals were killed, their blood were centrifuged and the serum were used for the microbiological determination of the concentration. […]
Catalogue of concentration at 1 h values
API: value field is a number in ng/mL; no unit string.

# compound, concentration at 1 h (ng/mL)
rows = [
    ("CCn1cc(C(=O)O)c(=O)c2cc3c(cc21)OCO3 [choline oxolinate]", 26000),
]

INPUT: Field request: concentration at 1 h | item: CCn1cc(C(=O)O)c(=O)c2cc3c(cc21)OCO3 [oxolinic acid]
OUTPUT: 14500

The origin of these recorded values is patent EP0153171A2.
